src = patent US10336760B2

The entries below come with measured pIC50 values attached.
system_tested: CDK7 (Homo sapiens)
Construct: purchased Life Technologies (Grand Island, N.Y.), Adapta kinase assay service
Sequence (P50613 whole entry): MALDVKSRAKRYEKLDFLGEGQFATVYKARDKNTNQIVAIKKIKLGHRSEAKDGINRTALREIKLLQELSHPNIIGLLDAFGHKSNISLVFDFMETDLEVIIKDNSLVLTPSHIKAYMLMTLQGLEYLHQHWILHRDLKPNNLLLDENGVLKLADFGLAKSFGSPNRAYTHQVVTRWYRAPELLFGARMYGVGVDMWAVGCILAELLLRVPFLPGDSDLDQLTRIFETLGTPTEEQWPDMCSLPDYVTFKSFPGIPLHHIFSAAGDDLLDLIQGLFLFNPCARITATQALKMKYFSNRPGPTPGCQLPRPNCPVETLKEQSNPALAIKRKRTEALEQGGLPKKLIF
Sequence (P51946 whole entry partner): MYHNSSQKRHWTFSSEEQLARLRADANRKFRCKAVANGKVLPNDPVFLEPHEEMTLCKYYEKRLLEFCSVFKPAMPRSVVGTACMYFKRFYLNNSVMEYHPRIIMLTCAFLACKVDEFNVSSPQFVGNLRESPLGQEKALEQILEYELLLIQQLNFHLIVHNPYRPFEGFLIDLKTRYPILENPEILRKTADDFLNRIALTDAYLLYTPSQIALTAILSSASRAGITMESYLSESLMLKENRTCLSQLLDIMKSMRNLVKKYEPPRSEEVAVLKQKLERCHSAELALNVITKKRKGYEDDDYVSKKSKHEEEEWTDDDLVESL
Sequence (P51948 whole entry partner): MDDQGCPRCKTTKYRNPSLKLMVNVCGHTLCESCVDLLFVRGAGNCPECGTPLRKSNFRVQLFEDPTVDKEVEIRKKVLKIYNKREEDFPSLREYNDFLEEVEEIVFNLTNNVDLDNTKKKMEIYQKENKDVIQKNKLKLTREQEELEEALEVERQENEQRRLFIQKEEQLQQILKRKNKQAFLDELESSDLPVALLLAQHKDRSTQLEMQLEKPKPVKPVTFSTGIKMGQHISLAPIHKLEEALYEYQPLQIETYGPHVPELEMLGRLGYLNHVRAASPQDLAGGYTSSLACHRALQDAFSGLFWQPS
protocol_summary: CDK7 kinase activity, Adapta kinase assay (Life Technologies); also: concentrations from 10 µM down to 0.514 nM
Assay type: biochemical
assay_context: read-out: CDK7 Inhibition (IC50)
pIC50: −log10 of the molar value.

These solved cases illustrate the format of a correct answer.
The compound listed as CN(C)C/C=C/C(=O)Nc1cccc(CN2CCC(C(=O)Nc3ncc(SCc4ncc(C(C)(C)C)o4)s3)CC2)c1 [Compound 127] has a reported pIC50 of 6.00 to 7.00

The compound listed as C=CC(=O)Nc1ccc(CN2CCC(C(=O)Nc3ncc(SCc4ncc(C(C)(C)C)o4)s3)CC2)cc1 [Compound 119] has a reported pIC50 of 6.00 to 7.00

The compound listed as CC(C)c1cnn2c(NCc3ccccc3N3CCN(C(=O)/C=C/CN(C)C)CC3)nc(OC3CCN(C)CC3)nc12 [Compound 105] has a reported pIC50 of > 7.00

The compound listed as C=CC(=O)N1CCC(CN2CCC(C(=O)Nc3ncc(SCc4ncc(C(C)(C)C)o4)s3)CC2)CC1 [Compound 120] has a reported pIC50 of < 6.00

The compound listed as C=CC(=O)Nc1cccc(CN2CCC(C(=O)Nc3ncc(SCc4ncc(C(C)(C)C)o4)s3)CC2)c1 [Compound 118] has a reported pIC50 of 6.00 to 7.00

The compound listed as C=CC(=O)Nc1cccc(C(C)N2CCC(C(=O)Nc3ncc(SCc4ncc(C(C)(C)C)o4)s3)CC2)c1 (stereo not shown) [Compound 121] has a reported pIC50 of 6.00 to 7.00

Okay, next one:
The compound listed as C=CC(=O)N1CCCC(CN2CCC(C(=O)Nc3ncc(SCc4ncc(C(C)(C)C)o4)s3)CC2)C1 (stereo not shown) [Compound 125] has a reported pIC50 of 6.00 to 7.00
